- system.under.test: Gamma-secretase
- experiment.description: Inhibition of gamma-secretase (unknown origin) expressed in N2a NL/N cells coexpressing betaAPPNL and NotchdeltaE assessed as Abeta40 secretion by ELISA
- Type: cell-based, Homo sapiens
quantity.measured: IC50 (nM)
Quick note: give the figure in nM, leave out the unit.

See these solved cases before continuing.
[[record]]
molecule = "CC(=O)N[C@H]1CCC[C@@H]1C(=O)N[C@H]1CCC[C@@H]1C(=O)N[C@H]1CCC[C@@H]1C(=O)N[C@H]1CCC[C@@H]1C(=O)N[C@H]1CCC[C@@H]1C(=O)N[C@H]1CCC[C@@H]1C(=O)N[C@H]1CCC[C@@H]1C(=O)N[C@H]1CCC[C@@H]1C(=O)N[C@H]1CCC[C@@H]1C(=O)N[C@H]1CCC[C@@H]1C(=O)N[C@H]1CCC[C@@H]1C(=O)N[C@H]1CCC[C@@H]1C(N)=O"
quantity_measured = "IC50"
experimental_result = 8.81

[[record]]
molecule = "CC(=O)N[C@H]1CCC[C@@H]1C(=O)N[C@H]1CCC[C@@H]1C(=O)NC(CO)CC(=O)N[C@H]1CCC[C@@H]1C(=O)N[C@H]1CCC[C@@H]1C(=O)N[C@H]1CCC[C@@H]1C(=O)N[C@H]1CCC[C@@H]1C(=O)N[C@H]1CCC[C@@H]1C(=O)N[C@H]1CCC[C@@H]1C(=O)N[C@H]1CCC[C@@H]1C(=O)N[C@H]1CCC[C@@H]1C(=O)N[C@H]1CCC[C@@H]1C(N)=O (single isomer, unassigned)"
quantity_measured = "IC50"
experimental_result = 0.402


# input for lookup
Qu. Request - read-out IC50 | tested on Gamma-secretase | molecule `CC(=O)N[C@H]1CCC[C@@H]1C(=O)N[C@H]1CCC[C@@H]1C(=O)N[C@@H](CC(N)=O)CC(=O)N[C@H]1CCC[C@@H]1C(=O)N[C@H]1CCC[C@@H]1C(=O)N[C@H]1CCC[C@@H]1C(=O)N[C@H]1CCC[C@@H]1C(=O)N[C@H]1CCC[C@@H]1C(=O)N[C@H]1CCC[C@@H]1C(=O)N[C@H]1CCC[C@@H]1C(=O)N[C@H]1CCC[C@@H]1C(=O)N[C@H]1CCC[C@@H]1C(N)=O`
Ans. 0.555

###

- system.under.test: Gamma-secretase (Homo sapiens) (UniProt Q96BI3+Q9NZ42+Q8WW43+P49768+Q92542+P49810)
- experiment.description: Inhibition of gamma-secretase (unknown origin) expressed in N2a NL/N cells coexpressing betaAPPNL and NotchdeltaE assessed as Abeta40 secretion at 100 nM by ELISA
- Type: cell-based
Calls of active or inactive are those of the source. The rule behind the calls is not given here.
# valid calls are t = active, f = inactive; nothing else

Past entries and their recorded results:
[[record]]
compound = "CC(=O)N[C@H]1CCC[C@@H]1C(=O)N[C@H]1CCC[C@@H]1C(=O)NC(CO)CC(=O)N[C@H]1CCC[C@@H]1C(=O)N[C@H]1CCC[C@@H]1C(=O)N[C@H]1CCC[C@@H]1C(=O)N[C@H]1CCC[C@@H]1C(=O)N[C@H]1CCC[C@@H]1C(=O)N[C@H]1CCC[C@@H]1C(=O)N[C@H]1CCC[C@@H]1C(=O)N[C@H]1CCC[C@@H]1C(=O)N[C@H]1CCC[C@@H]1C(N)=O (single isomer, unassigned)"
assigned_class = "t"

[[record]]
compound = "CC(=O)N[C@H]1CCC[C@@H]1C(=O)N[C@H]1CCC[C@@H]1C(=O)N[C@H]1CCC[C@@H]1C(=O)N[C@H]1CCC[C@@H]1C(=O)N[C@H]1CCC[C@@H]1C(=O)N[C@H]1CCC[C@@H]1C(=O)N[C@H]1CCC[C@@H]1C(=O)N[C@H]1CCC[C@@H]1C(=O)NC(CO)CC(=O)N[C@H]1CCC[C@@H]1C(=O)N[C@H]1CCC[C@@H]1C(=O)N[C@H]1CCC[C@@H]1C(N)=O (single isomer, unassigned)"
assigned_class = "f"


Then this compound:
Qu. # fetch the recorded call for `CC(=O)N[C@H]1CCC[C@@H]1C(=O)N[C@H]1CCC[C@@H]1C(=O)N[C@H](CC(=O)N[C@H]1CCC[C@@H]1C(=O)N[C@H]1CCC[C@@H]1C(=O)N[C@H]1CCC[C@@H]1C(=O)N[C@H]1CCC[C@@H]1C(=O)N[C@H]1CCC[C@@H]1C(=O)N[C@H]1CCC[C@@H]1C(=O)N[C@H]1CCC[C@@H]1C(=O)N[C@H]1CCC[C@@H]1C(=O)N[C@H]1CCC[C@@H]1C(N)=O)CC(C)C` here
Ans. t
